System: Mus musculus
Assay: Sedative-hypnotic activity in po dosed mouse assessed as increase in pentylenetetrazol-induced persistent-convulsive threshold
Format: functional, organism-based
Calls of active or inactive are those of the source.
In this exercise, the only acceptable responses are YES = active, NO = inactive

Use the examples below as a reference point.
compound	assay.system	cat
CC(C)c1ccccc1NC(=O)/N=C1\CCCN1C	Mus musculus	YES
CCN1CCC/C1=N\C(=O)Nc1cccc(Cl)c1	Mus musculus	YES
O=C(/N=C1\CCCN1Cc1ccccc1)Nc1cccc(Cl)c1	Mus musculus	NO
O=C(/N=C1\CCCCCN1)Nc1c(Cl)cccc1Cl	Mus musculus	NO
Cc1cccc(C)c1NC(=O)/N=C1\CC(c2ccccc2)CN1C (centres undefined)	Mus musculus	NO

Task: What is the recorded call for this compound in the test? CC1/C(=N\C(=O)Nc2ccccc2)N(C)CC1c1ccccc1 (centres undefined)
Output: NO

Task: Lookup Cc1cccc(C)c1NC(=O)/N=C1\CC(C)(C)CN1C
Output: NO

Task: O=C(/N=C1\CCCN1Cc1ccccc1)Nc1c(Cl)cccc1Cl , same question.
Output: NO

* * *

Experiment: Therapeutic index, ratio of PD50 for acute toxicity in po dosed mouse assessed as concentration required to produce 50% loss of righting reflex to MED20 for anticonvulsant activity in po dosed mouse assessed as blockade of supramaximal electroshock-induced […] seizure
Format: organism-based
Conditions: in vivo, read-out: TI
readout.kind: selectivity ratio
Just the number, please.

Task: # selectivity ratio lookup, item COc1ccccc1OCC(O)COC(N)=O (stereo unspecified) [METHOCARBAMOL]
Output: 8.7

* * *

Test system: Mus musculus
Experiment: Sedative-hypnotic activity in po dosed mouse assessed as increase in pentylenetetrazol-induced persistent-convulsive threshold
Format: functional, organism-based
Calls of active or inactive are those of the source.
readout.kind: Activity

Completed entries (count: 4):
molecule	Activity
CN1CC(C)(C)C/C1=N\C(=O)Nc1cccc(Cl)c1	inactive
Cc1cccc(C)c1NC(=O)/N=C1\CCCN1Cc1ccccc1	inactive
CC1/C(=N\C(=O)Nc2c(Cl)cccc2Cl)N(C)CC1c1ccccc1 (configuration not stated)	inactive
CN1CC(C)(C)C/C1=N\C(=O)Nc1ccccc1	inactive

Task: Give its Activity value. Item: CC1/C(=N\C(=O)Nc2cccc(Cl)c2)N(C)CC1c1ccccc1 (configuration not stated)
Output: inactive

Task: How about this molecule: O=C(/N=C1\CCCN1Cc1ccccc1)Nc1cccc(C(F)(F)F)c1
Output: inactive

Task: Another molecule to look at: CCCCN1CCC/C1=N\C(=O)Nc1c(C)cccc1C
Output: inactive

* * *

System: Mus musculus
Experiment: Hypnotic activity in po dosed mouse assessed as increase in pentylenetetrazol-induced persistent-convulsive threshold
Type: functional, organism-based
Activity calls are given as the source filed them.
Give your call using only these classes: active, inactive

Worked set:
compound	cat
O=C(/N=C1\CCCCCN1)Nc1c(Cl)cccc1Cl	inactive
CN1CCC/C1=N\C(=O)Nc1ccccc1Cl	active
Cc1cccc(C)c1NC(=O)/N=C1\CC(C)(C)CN1C	inactive
CC1/C(=N\C(=O)Nc2ccccc2)N(C)CC1c1ccccc1 (stereo not given)	inactive
CC1/C(=N\C(=O)Nc2cccc(Cl)c2)N(C)CC1c1ccccc1 (stereo not given)	inactive

Task: Recorded call for CN1CCC/C1=N\C(=O)Nc1ccccc1C(F)(F)F ?
Output: active

Task: Same again, this time with Cc1cccc(C)c1NC(=O)/N=C1\C(C)C(c2ccccc2)CN1C (stereo not given)
Output: inactive

Task: Here is the next compound: CN1CC(c2ccccc2)C/C1=N\C(=O)Nc1ccccc1 (stereo not given)
Output: inactive

Task: Now this one: CN1CC(C)(C)C/C1=N\C(=O)Nc1ccccc1
Output: inactive

Task: Now consider CN1CCC/C1=N\C(=S)Nc1ccccc1 .
Output: inactive
